Molecular target: MAGI2_5, Q86UL8
Sequence (Q86UL8 915-1017): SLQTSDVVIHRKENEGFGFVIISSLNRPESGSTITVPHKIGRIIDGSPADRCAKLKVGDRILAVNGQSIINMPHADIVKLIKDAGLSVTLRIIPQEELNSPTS
Test: holdup assay
Parameters: key: below the threshold = too weak to quantify, mostly under pKd 3.1 to 4
Details: plain residues with an end cap or a label only (N-terminal biotin on a linker: ado-ado)
READOUT TYPE: pKd

Study these solved cases before continuing.
- BINDER: "RGKNRRQSIF [CDK18, Q07002]"
  pKd: "below the threshold"
- BINDER: "SQDPKKPSRV [CBY2, Q8NA61]"
  pKd: "below the threshold"
- BINDER: "STYCDYTIEI [FAM71C, Q8NEG0]"
  pKd: "below the threshold"
- BINDER: "KAEEKPPSKV [SCN4B, Q8IWT1]"
  pKd: 3.51

Could you now consider this next binder?
### Prompt Record request: pKd value, item DYSNLRETDI [ADRA1D, P25100]
### Response below the threshold
